Cited source for all entries: ChEMBL document CHEMBL3352043

# experimental-system: Androgen receptor (Homo sapiens)
# test-protocol: Inhibition of androgen receptor transcriptional activity in human LNCaP cells after 3 days by eGFP assay
# Assay type: cell-based
pIC50: −log10 of the molar value.
outcome-measure: pIC50

[P] Clc1c(Br)ncn1-c1csc(N2CCOCC2)n1
[Q] c1ccc2nc(-c3ccncc3)ccc2c1
[R] Oc1ccc(-c2ccc3ccccc3n2)cc1
[S] COc1cc(F)ccc1-c1csc(N2CCOCC2)n1
[T] COc1c(-c2csc(N3CCOCC3)n2)ccc(F)c1F
### Prompt Ascending sort, pIC50. Respond with an ordered listing of the labels, as requested.
### Response R, Q, P, S, T
(R: 5.01, Q: 5.38, P: 5.84, S: 6.52, T: 6.74)

[A] CCc1sc(N2CCOCC2)nc1-c1ccccc1
[B] Fc1ccc(-c2csc(-c3ccncc3)n2)cc1
### Prompt Recorded pIC50 values differ for A and B ; which one is higher? Write the label of whichever entry you select.
### Response B
(B: 5.90, A: 5.24)

[P] FC(F)(F)[C@H]1CN(c2nc(-c3ccccc3)cs2)CCO1
[Q] Cc1ncn(-c2csc(N3CCOCC3)n2)c1C
### Prompt Return label of the item with the larger pIC50. Candidates: P , Q . Could you answer with the label of the item you picked?
### Response P
(P: 5.78, Q: 5.45)

----------
# experimental-system: Androgen receptor (Homo sapiens)
# test-protocol: Inhibition of androgen receptor in human LNCaP cells assessed as inhibition of prostate-specific antigen secretion into media after 3 days
# Assay type: cell-based
pIC50: −log10 of the molar value.
outcome-measure: pIC50

Known results for molecules:
{"smiles-code": "FC(F)(F)[C@H]1CN(c2nc(-c3ccccc3)cs2)CCO1", "experimental-system": "Androgen receptor (Homo sapiens)", "pIC50": 6.80}
{"smiles-code": "Clc1c(Br)ncn1-c1csc(N2CCOCC2)n1", "experimental-system": "Androgen receptor (Homo sapiens)", "pIC50": 5.89}
{"smiles-code": "Brc1cn(-c2csc(N3CCOCC3)n2)cn1", "experimental-system": "Androgen receptor (Homo sapiens)", "pIC50": 5.76}
{"smiles-code": "Clc1ncn(-c2csc(N3CCOCC3)n2)c1I", "experimental-system": "Androgen receptor (Homo sapiens)", "pIC50": 5.40}
{"smiles-code": "N#Cc1ccc(-c2ccc(N3CCOCC3)s2)cc1", "experimental-system": "Androgen receptor (Homo sapiens)", "pIC50": 6.05}

[I] Cc1ccc(C)c(-c2csc(N3CCOCC3)n2)c1
[II] Oc1ccc2nc(N3CCOCC3)sc2c1
### Prompt // which entry reports the smaller pIC50, I or II ? Give the label under which the chosen entry appears.
### Response II
(II: 5.09, I: 6.28)

----------
# experimental-system: Androgen receptor (Homo sapiens)
# test-protocol: Inhibition of androgen receptor in human LNCaP cells assessed as inhibition of prostate-specific antigen secretion into media after 3 days
# Type: cell-based
pIC50: −log10 of the molar value.
outcome-measure: pIC50

{"smiles-code": "COc1c(-c2csc(N3CCOCC3)n2)ccc(F)c1F", "assay-result": 6.60}

[I] Clc1ncn(-c2csc(N3CCOCC3)n2)c1Cl
[II] CCc1sc(N2CCOCC2)nc1-c1ccccc1
[III] CNc1nc(-c2ccc3ccccc3c2)cs1
### Prompt Ordering: ascending pIC50. To answer, write out the labels according to the requested order.
### Response II, III, I
(II: 5.07, III: 5.41, I: 6.24)

[1] c1cc(-c2csc(N3CCOCC3)n2)cs1
[2] Nc1nc(-c2ccc3ccccc3c2)cs1
### Prompt From the items above, decide which of 1 and 2 has the lower pIC50 reading. # answer = label of selected item
### Response 2

----------
# experimental-system: Androgen receptor (Homo sapiens)
# test-protocol: Inhibition of androgen receptor transcriptional activity in human LNCaP cells after 3 days by eGFP assay
# Format: cell-based
outcome-measure: IC50 (nM)

Consider the following illustrative entries.
{"smiles-code": "Cc1sc(N2CCOCC2)nc1-c1ccccc1", "assay-result": 1460}
{"smiles-code": "Clc1ccc(-c2csc(N3CCOCC3)n2)c(Cl)c1", "assay-result": 1660}
{"smiles-code": "c1ccc(-c2csc(N3CCOCC3)n2)cc1", "assay-result": 330}
{"smiles-code": "Oc1c(F)cccc1-c1csc(N2CCOCC2)n1", "assay-result": 270}
{"smiles-code": "Oc1ccc2nc(N3CCOCC3)sc2c1", "assay-result": 7410}
{"smiles-code": "c1ccc(-c2csc(-c3ccncc3)n2)cc1", "assay-result": 1200}
{"smiles-code": "Nc1nc(-c2ccc3ccccc3c2)cs1", "assay-result": 9160}
{"smiles-code": "Clc1ncn(-c2csc(N3CCOCC3)n2)c1I", "assay-result": 2610}
{"smiles-code": "Cc1ccc(C)c(-c2csc(N3CCOCC3)n2)c1", "assay-result": 620}
{"smiles-code": "CNc1nc(-c2ccc3ccccc3c2)cs1", "assay-result": 3170}

[A] Clc1cn(-c2csc(N3CCOCC3)n2)cn1
[B] Brc1ncn(-c2csc(N3CCOCC3)n2)c1Br
[C] Fc1ccc(-c2csc(N3CCOCC3)n2)cc1
[D] Clc1ncn(-c2csc(N3CCOCC3)n2)c1Br
[E] CS(=O)(=O)c1c(F)cccc1-c1csc(N2CCOCC2)n1
### Prompt # rank_down: sort by IC50, max first Answer with the labels in sequence, matching the requested order.
### Response E, A, C, D, B
(E: 3560 nM, A: 960 nM, C: 650 nM, D: 330 nM, B: 120 nM)

[A] c1ccc(-c2ccc(N3CCOCC3)s2)cc1
[B] Oc1cc(F)ccc1-c1csc(N2CCOCC2)n1
### Prompt Param pair: A , B . Output: the one whose IC50 is numerically greater. Pick one; state its label.
### Response B
(B: 1190 nM, A: 520 nM)

----------
# experimental-system: Androgen receptor (Homo sapiens, UniProt P10275)
# Sequence (P10275 whole entry): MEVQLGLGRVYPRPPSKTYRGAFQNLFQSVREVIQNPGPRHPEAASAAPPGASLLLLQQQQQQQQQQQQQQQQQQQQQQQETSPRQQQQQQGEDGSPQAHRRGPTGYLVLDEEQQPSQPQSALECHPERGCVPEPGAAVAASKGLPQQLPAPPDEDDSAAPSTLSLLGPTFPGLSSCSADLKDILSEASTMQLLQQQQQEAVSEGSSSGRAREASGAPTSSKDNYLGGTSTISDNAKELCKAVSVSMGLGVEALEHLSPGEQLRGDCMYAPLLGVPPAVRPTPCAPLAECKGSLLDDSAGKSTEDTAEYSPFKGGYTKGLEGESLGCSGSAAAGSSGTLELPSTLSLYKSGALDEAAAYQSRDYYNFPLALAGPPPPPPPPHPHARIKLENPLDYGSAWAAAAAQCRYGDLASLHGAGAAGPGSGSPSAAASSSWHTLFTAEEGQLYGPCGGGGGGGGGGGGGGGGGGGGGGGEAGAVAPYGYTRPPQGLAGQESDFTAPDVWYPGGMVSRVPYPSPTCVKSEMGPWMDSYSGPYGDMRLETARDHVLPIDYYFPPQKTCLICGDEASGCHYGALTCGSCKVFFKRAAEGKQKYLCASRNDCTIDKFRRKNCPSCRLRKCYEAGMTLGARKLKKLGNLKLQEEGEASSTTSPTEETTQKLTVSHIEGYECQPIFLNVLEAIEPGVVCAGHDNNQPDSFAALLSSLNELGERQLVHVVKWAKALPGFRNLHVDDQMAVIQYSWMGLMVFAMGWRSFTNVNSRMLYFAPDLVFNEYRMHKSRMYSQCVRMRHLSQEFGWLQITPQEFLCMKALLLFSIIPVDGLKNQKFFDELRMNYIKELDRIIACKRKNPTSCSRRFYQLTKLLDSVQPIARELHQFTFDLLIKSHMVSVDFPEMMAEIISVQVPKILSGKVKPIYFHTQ
# test-protocol: Inhibition of androgen receptor transcriptional activity in human LNCaP cells after 3 days by eGFP assay
# Assay type: cell-based
pIC50: −log10 of the molar value.
outcome-measure: pIC50

{"smiles-code": "c1ccc(-c2csc(N3CCSCC3)n2)cc1", "experimental-system": "Androgen receptor (Homo sapiens, UniProt P10275)", "assay-result": 6.21}
{"smiles-code": "c1ccc(-c2cc(N3CCOCC3)cs2)cc1", "experimental-system": "Androgen receptor (Homo sapiens, UniProt P10275)", "assay-result": 5.91}
{"smiles-code": "Clc1ncn(-c2csc(N3CCOCC3)n2)c1Cl", "experimental-system": "Androgen receptor (Homo sapiens, UniProt P10275)", "assay-result": 6.17}
{"smiles-code": "N#Cc1ccc(-c2ccc(N3CCOCC3)s2)cc1", "experimental-system": "Androgen receptor (Homo sapiens, UniProt P10275)", "assay-result": 5.84}
{"smiles-code": "COc1c(F)cc(O)cc1-c1csc(N2CCOCC2)n1", "experimental-system": "Androgen receptor (Homo sapiens, UniProt P10275)", "assay-result": 5.52}

[A] Fc1ccc(-c2csc(N3CCSCC3)n2)cc1
[B] c1cc(-c2csc(N3CCOCC3)n2)ccn1
[C] Cc1scc(-c2csc(N3CCOCC3)n2)c1C
[D] Oc1c(-c2csc(N3CCOCC3)n2)ccc(F)c1F
### Prompt Please produce an ascending ranking of these compounds based on pIC50. Record the ranking as a list of labels in the requested order.
### Response B, A, D, C

[a] c1ccc(-c2csc(N3CCCCC3)n2)cc1
[b] Oc1ccc(-c2nc(-c3c[nH]c4ccccc34)cs2)cc1
### Prompt Which value of pIC50 is smaller, the one for a or the one for b ? Please reply using the label of the selected record.
### Response b

[1] c1cc(-c2csc(N3CCOCC3)n2)cs1
[2] Brc1cn(-c2csc(N3CCOCC3)n2)cn1
[3] Ic1ncn(-c2csc(N3CCOCC3)n2)c1I
### Prompt Descending sort on pIC50 required. Quick reminder: the answer is the labels in the order asked.
### Response 1, 3, 2
(1: 6.59, 3: 5.76, 2: 5.55)

[P] Nc1ccccc1-c1csc(N2CCOCC2)n1
[Q] FC(F)(F)c1cccc(-c2csc(N3CCOCC3)n2)c1
[R] c1ccc(-c2csc(N3CCOCC3)n2)nc1
### Prompt Rank items: key pIC50, increasing. List the labels in the requested order.
### Response R, P, Q
(R: 5.59, P: 5.86, Q: 6.21)
